Test system: CAKI-1 renal
Test: NCI tumour cell line growth inhibition, 48 h; in the data active = GI50 below about 0.43 µM; inactive = the rest
The reply should name one outcome from active, inactive

Recorded test outcome, item Clc1cc2c(cc1Cl)Oc1cc(Cl)c(Cl)cc1O2
inactive

Recorded test outcome, item CCC[CH2][Sn]([CH2]CCC)([O]C(=O)c1cc(F)ccc1F)[O][Sn]([CH2]CCC)([CH2]CCC)[O]C(=O)c1cc(F)ccc1F
active

Recorded test outcome, item COc1ccc(C2CC(c3cccc(Nc4ccncc4)c3)=NN2c2ccc(Cl)cc2)cc1 (stereo not given)
inactive

Recorded test outcome, item COc1cccc(C2C3=C(COC3=O)N(CCO)c3cc(OC)ccc32)c1 (stereo not given)
inactive

Recorded test outcome, item CCCCCCc1cc2cc(-c3nc4ccccc4[nH]3)c(=Nc3ccccc3C)oc2cc1O
inactive

----------
Please provide measured TGI for the entries that follow.
Test system: EKVX NSCLC
Assay: NCI tumour cell line growth inhibition, 48 h

Name the reported TGI value associated with the compound COc1ccc(C2CC(c3cccc(Nc4ccncc4)c3)=NN2c2ccc(Cl)cc2)cc1 (centres undefined)
3.27 µM

Name the reported TGI value associated with the compound Nc1ccc(-c2cssc2=S)cc1
> 100 µM

Name the reported TGI value associated with the compound Cc1ccc(N=NC2S/C(=C(\C#N)c3nc4ccccc4[nH]3)N(c3ccccc3)C2=O)cc1 (centres undefined)
> 100 µM

Name the reported TGI value associated with the compound C/C=C1/CN2CCc3c([nH]c4ccccc34)[C@@H]2C[C@@H]1Cc1[nH]ccc2c1[nH]c1cc(=O)ccc12
4.05 µM

Name the reported TGI value associated with the compound CC(C)CCC[C@@H](C)[C@H]1CC[C@H]2[C@@H]3CC[C@H]4C[C@H](N)CC[C@]4(C)[C@H]3CC[C@]12C
43.4 µM

Name the reported TGI value associated with the compound C#CCN(Cc1nc2cc(C(F)(F)F)ccc2nc1-c1ccccc1)c1ccc(OC(F)(F)F)cc1
> 100 µM

Name the reported TGI value associated with the compound COc1cc2c(cc1OCCCCCOc1cc3c(cc1OC)C(=O)N1CC(F)C[C@H]1C=N3)N=C[C@@H]1CC(F)CN1C2=O (some centres undefined)
7.78 µM

Name the reported TGI value associated with the compound O=C(O)C1=CCCc2ccc3ccccc3c21
> 100 µM

Name the reported TGI value associated with the compound C#CCNC(=O)NCCCC(NC(C)=O)C(=O)NCc1ccccc1 (centres undefined)
> 100 µM

----------
Please provide measured TGI for the entries that follow.
Tested on: SF-295 CNS
Assay: NCI tumour cell line growth inhibition, 48 h

Name the reported TGI value associated with the compound O=[N+]([O-])c1ccc2[nH]nc(OCc3ccccn3)c2c1
> 100 µM

Name the reported TGI value associated with the compound Cc1noc2cccc(OCc3ccccc3)c12
> 100 µM

Name the reported TGI value associated with the compound COc1ccc2c(c1O)C13CCN(C)C(C2)C1CCC1(C3)OCCO1 (stereo unspecified)
> 100 µM

Name the reported TGI value associated with the compound CC(=O)N1CN2C(=O)CCC2c2ccccc21 (stereo unspecified)
> 100 µM

Name the reported TGI value associated with the compound CCCCCCCC(=O)NCC(O)CNC(=O)CCCCCCC
> 100 µM

Name the reported TGI value associated with the compound CC(C)CCC[C@@H](C)[C@H]1CC[C@H]2[C@@H]3CC[C@H]4C[C@H](N)CC[C@]4(C)[C@H]3CC[C@]12C
45.5 µM

----------
Please provide measured TGI for the entries that follow.
Tested on: NCI-H23 lung
Experiment: NCI tumour cell line growth inhibition, 48 h

Name the reported TGI value associated with the compound Oc1ccc(CN2CCC(N3CCOCC3)CC2)c2cccnc12
> 100 µM

Name the reported TGI value associated with the compound N#Cc1c(NC(=S)Nc2ccc(Cl)cc2)sc2c1CCCC2
> 100 µM

Name the reported TGI value associated with the compound CCN(CC)CCCn1cnc2ncccc2c1=O
> 100 µM

Name the reported TGI value associated with the compound Nc1nc2sc3ccccc3c(=O)n2n1
> 100 µM

Name the reported TGI value associated with the compound O=c1[nH]c2ccc(Cl)cc2c2oc(-c3ccccc3)nc12
74.9 µM

Name the reported TGI value associated with the compound CC(=O)CCc1ccc(OC2OC(COC(=O)c3cc(O)c(O)c(O)c3)C(O)C(O)C2OC(=O)/C=C/c2ccccc2)cc1 (configuration not stated)
38.6 µM

Name the reported TGI value associated with the compound C#CCNC(=O)NCCCC(NC(C)=O)C(=O)NCc1ccccc1 (configuration not stated)
> 100 µM

Name the reported TGI value associated with the compound C#CCN(Cc1nc2cc(C(F)(F)F)ccc2nc1-c1ccccc1)c1ccc(OC(F)(F)F)cc1
> 100 µM

Name the reported TGI value associated with the compound CC(=O)O[C@@]12CO[C@@H]1C[C@H](O)[C@@]1(C)C(=O)[C@H](O)C3=C(C)[C@@H](OC(=O)[C@H](O)[C@@H](NC(=O)OC(C)(C)C)c4ccccc4)C[C@@](O)([C@@H](OC(=O)c4ccccc4)[C@H]21)C3(C)C
> 67.2 µM

Name the reported TGI value associated with the compound CS(=O)(=O)OCC1OC(n2ccc(NC(=O)c3ccccc3)nc2=O)CC1OS(C)(=O)=O (configuration not stated)
> 100 µM

Name the reported TGI value associated with the compound CSc1nc(NC2OCC(OC(C)=O)C(OC(C)=O)C2OC(C)=O)c(N=C(C)C(C)=O)c(=O)[nH]1 (configuration not stated)
> 100 µM

Name the reported TGI value associated with the compound Clc1ccc(/C=C/c2cc(N3CCOCC3)c3cc(Cl)c(Cl)cc3n2)cc1
> 100 µM

Name the reported TGI value associated with the compound CC(C)(C)OC(=O)CC(NC(=O)OC(C)(C)C)C(=O)N[C@@H]1CCCC[C@H]1C(=O)OCc1ccccc1 (some centres not stated)
85.3 µM

Name the reported TGI value associated with the compound Cn1ccc(C(=O)N2CCSC2=S)c(OCc2ccccc2)c1=O
> 100 µM

Name the reported TGI value associated with the compound N/C(=C\C(=O)n1nc(-c2ccccc2)cc1N)c1ccccc1
22.8 µM

Name the reported TGI value associated with the compound CCCCCCCc1cc(OC(=O)c2c(C)cc(OC)cc2O)cc(O)c1C(=O)O
43.1 µM

Name the reported TGI value associated with the compound Cc1oc2c(C)c3oc(=O)cc(C)c3cc2c1CNC(=O)[C@@H]1OCCOCCOCCOCCOCCOC1C(=O)O (some centres not stated)
> 100 µM

Name the reported TGI value associated with the compound COC(=O)C1=C(C(=O)OC)C(Cc2ccccc2)(OO)OC1=O (configuration not stated)
44.4 µM

Name the reported TGI value associated with the compound COc1cc2c3c(n(CCCN(CCN)CCCn4c5c(c6cc(OC)c(OC)cc6c4=O)C(=O)c4cc6c(cc4-5)OCO6)c(=O)c2cc1OC)-c1cc2c(cc1C3=O)OCO2
5.24 µM

Name the reported TGI value associated with the compound C=[N+](CNC(=O)CNC(=O)C(Cc1ccc([N+](=O)[O-])cc1)NC(=O)OC(C)(C)C)C(=O)CNC(=O)C(Cc1ccc([N+](=O)[O-])cc1)NC(=O)OC(C)(C)C (configuration not stated)
> 100 µM

Name the reported TGI value associated with the compound O=[N+]([O-])c1ccc2[nH]nc(OCc3ccccn3)c2c1
> 100 µM

Name the reported TGI value associated with the compound CO/C=C(/C(=O)OC)c1ccccc1[C@@H]1CC1c1cccc(F)c1 (some centres not stated)
> 100 µM

Name the reported TGI value associated with the compound CC(=O)Oc1c(C)c2c(O)c3c1C1=C(OCOC1=C(C)C3=O)/C(C)=C\C(C)(O)C(O)C(C)C(O)C1C(=O)OC(C(C)C1O)C(C)(O)/C=C/C=C(C)C(=O)N2 (configuration not stated)
> 100 µM

Name the reported TGI value associated with the compound N#Cc1ncc(-c2ccc(C(F)(F)F)cc2)c(NCc2cc(C(F)(F)F)cc(C(F)(F)F)c2)n1
23.8 µM

Name the reported TGI value associated with the compound CS(=O)(=O)OC1CN2CCC1CC2 (configuration not stated)
> 100 µM

Name the reported TGI value associated with the compound CC(=O)N1CN2C(=O)CCC2c2ccccc21 (configuration not stated)
> 100 µM

Name the reported TGI value associated with the compound S=C1Cc2c(-c3ccc(Cl)cc3)cc(-c3ccccc3)nc2-c2ccccc2N1
27.2 µM

Name the reported TGI value associated with the compound CC(=O)N1c2ccccc2C2=CC3C4C(=O)N(c5ccccc5)C(=O)C4C21C1C(=O)N(c2ccccc2)C(=O)C31 (configuration not stated)
> 100 µM

Name the reported TGI value associated with the compound Cn1cc(C2=C(c3cn(CCO)c4ccccc34)C(=O)NC2=O)c2ccccc21
15.2 µM

Name the reported TGI value associated with the compound COc1cc(-n2cc(-c3ccc(F)cc3)nc2SCc2ccccc2)cc(OC)c1OC
> 100 µM

Name the reported TGI value associated with the compound CC(=O)N1N=C(c2ccc(Nc3nc(Nc4ccc(Cl)cc4)nc(Nc4ccc(Cl)cc4)n3)cc2)CC1c1ccc([N+](=O)[O-])cc1 (configuration not stated)
> 100 µM

Name the reported TGI value associated with the compound O=S(=O)(N/N=C1\CC2CCC1C2)c1ccccc1 (configuration not stated)
> 100 µM

Name the reported TGI value associated with the compound O=S(=O)(Cc1ccc(Cl)cc1Cl)c1ccc(Cl)cc1
> 100 µM

Name the reported TGI value associated with the compound Cc1cc(NS(=O)(=O)c2ccc(NC(=O)c3ccc4[nH]c5ccccc5c(=O)c4c3)cc2)no1
> 100 µM

Name the reported TGI value associated with the compound COc1ccc(/C=C2\C(=O)N(C)C(=O)c3cc(OC)c(OC)cc32)cc1OC
> 100 µM

Name the reported TGI value associated with the compound O=C1C2C(C(=O)[N]1[Hg][c]1cccs1)C1(Cl)C(Cl)=C(Cl)C2(Cl)C1(Cl)Cl (configuration not stated)
3.14 µM

Name the reported TGI value associated with the compound CC(C)CCC[C@@H](C)[C@H]1CC[C@H]2[C@@H]3CC[C@H]4C[C@H](N)CC[C@]4(C)[C@H]3CC[C@]12C
> 100 µM
